- Test system: laboratory mice and rats
- Assay protocol: acute toxicity, LD50/30, injection into blood circulation, 30 days observation
- Type: in vivo, Swiss mice and Wistar rats
- Experimental conditions: dose causing death of 50% of animals within 30 days; slow injection into the blood circulation during 3 to 5 minutes; mice and rats; probit analysis
Readout label: Acute toxicity LD50/30 (mmol/kg)
Field format: number, assumed mmol/kg, no unit text.

- Substance smiles: "O=C([O-])C(C(=O)[O-])N1CCOCCOCCN(C(C(=O)[O-])C(=O)[O-])CCOCCOCC1.[Na+].[Na+].[Zn+2]"
  Reported result: 0.091

Reported Acute toxicity LD50/30 of `O=C([O-])C(C(=O)[O-])N1CCOCCOCCN(C(C(=O)[O-])C(=O)[O-])CCOCCOCC1.[Mg+2].[Na+].[Na+]` : 0.211
